Test system: PF3D7_0420300 AP2 domain 1 (GST-tagged)
Assay: gcPBM binding intensity (ln(normalized median fluorescence intensity)); higher = stronger DNA binding
In all, about 25,000 sequences were measured (“ln(normalized median fluorescence intensity)”: median about 9.3, highest 2% from about 10 on). This excerpt belongs to a sample that is enriched for the highest values.
MEASURED_ATTRIBUTE: gcPBM binding intensity (ln)
No unit in the answer, only the number.

(Q) Fill in the blank: the reported gcPBM binding intensity (ln) of ATATATATAAAACACACACACACATGTTTTAAAACT [CACACA_site78] is ____.
(A) 10.2

(Q) Fill in the blank: the reported gcPBM binding intensity (ln) of ATTAAATAAAAAAACACACACATATATACATATATA [CACACA_site3445] is ____.
(A) 9.89

(Q) Fill in the blank: the reported gcPBM binding intensity (ln) of ATATATATAAAACACACACACACATGGTTTAAAACT [CACACA_site4219] is ____.
(A) 10.2

(Q) Fill in the blank: the reported gcPBM binding intensity (ln) of CACATACAGATATATACACACAAATATAAATACACA [CACACA_site6512] is ____.
(A) 9.98

(Q) Fill in the blank: the reported gcPBM binding intensity (ln) of TATAAGAAAAATAACACACACATAAACATAAATACA [CACACA_site5536] is ____.
(A) 9.87

(Q) Fill in the blank: the reported gcPBM binding intensity (ln) of TAAATAAAAAAACACACACACATATATATATATATA [CACACA_site2269] is ____.
(A) 9.94

(Q) Fill in the blank: the reported gcPBM binding intensity (ln) of AAAAAAATAAATAAGACACACACAAAAAAAAAAAAA [CACACA_site8404] is ____.
(A) 9.97

====

Test system: PF3D7_0420300 AP2 domain 1 (GST-tagged)
Assay: gcPBM binding intensity (ln(normalized median fluorescence intensity)); higher = stronger DNA binding
The full ranking holds about 25,000 sequences; the median of “ln(normalized median fluorescence intensity)” is about 9.3, and the highest 2% start at about 10. Shown is part of a subset that was picked to be rich in the highest values.
MEASURED_ATTRIBUTE: gcPBM binding intensity (ln)

(Q) Fill in the blank: the reported gcPBM binding intensity (ln) of ATATATCTGTATGGCACACACGGATAAATATATATA [CACACA_site4668] is ____.
(A) 9.52

(Q) Fill in the blank: the reported gcPBM binding intensity (ln) of TCATAATGAAAACAAGCACACATACATAAAATAAAA [CACACA_site9069] is ____.
(A) 9.7

(Q) Fill in the blank: the reported gcPBM binding intensity (ln) of ATAATTTATATTCAGAAACACACGAAAAAAAAAAAT [CACACA_site1296] is ____.
(A) 9.64

(Q) Fill in the blank: the reported gcPBM binding intensity (ln) of TTATATATTAAGAAATGTACGAAAAAAAAAATTATA [XGTACX_site3893] is ____.
(A) 9.2

(Q) Fill in the blank: the reported gcPBM binding intensity (ln) of AACAACTATTACTGCACACATTCTTACACTATATAA [CACACA_site654] is ____.
(A) 9.75

====

System: PF3D7_0420300 AP2 domain 1 (GST-tagged)
Experiment: gcPBM binding intensity (ln(normalized median fluorescence intensity)); higher = stronger DNA binding
The full ranking holds about 25,000 sequences; the median of “ln(normalized median fluorescence intensity)” is about 9.3, and the highest 2% start at about 10. Only a selection was taken, and the highest values are over-represented in it overall.
So I've got a bunch of sequences here, and I need their gcPBM binding intensity (ln) values.
No unit in the answer, only the number.

(Q) Fill in the blank: the reported gcPBM binding intensity (ln) of GAGTAAAAATTAAAATGTACATATTATATATATTTA [XGTACX_site1319] is ____.
(A) 9.09

(Q) Fill in the blank: the reported gcPBM binding intensity (ln) of CAATCAAATAGACACACACACACCTAAACATAAAAG [CACACA_site7322] is ____.
(A) 10.1

(Q) Fill in the blank: the reported gcPBM binding intensity (ln) of CAATCAAATGGACACACACACACCTAAACATAAAAG [CACACA_site5524] is ____.
(A) 10.2

(Q) Fill in the blank: the reported gcPBM binding intensity (ln) of TTATTTTTTCAAGAATGTACTTACGAATTGTCGTAT [XGTACX_site1363] is ____.
(A) 8.78

(Q) Fill in the blank: the reported gcPBM binding intensity (ln) of TATGCAAGGAACCACACACACACACGGAAATGTATA [CACACA_site6490] is ____.
(A) 10.2

(Q) Fill in the blank: the reported gcPBM binding intensity (ln) of AAAAAAATGAAACACACACACACATATATATATATA [CACACA_site1043] is ____.
(A) 9.93

(Q) Fill in the blank: the reported gcPBM binding intensity (ln) of ATGTATATGCAAACATGTACATATATAAACATATAT [XGTACX_site4159] is ____.
(A) 9.16

(Q) Fill in the blank: the reported gcPBM binding intensity (ln) of AAAGAAGGGGGGGGAAAAAAAAATAAAAGAGGAAAA [XGTACX_negctrl_site92] is ____.
(A) 9.59

(Q) Fill in the blank: the reported gcPBM binding intensity (ln) of ATATATATTTTATACGCATGTAATTATTATGTGGTC [TGCATGCA_site45] is ____.
(A) 9.29

(Q) Fill in the blank: the reported gcPBM binding intensity (ln) of TATTTTTATATAATGTGTACTTATACCTTATTTTTT [XGTACX_site1658] is ____.
(A) 9.3

(Q) Fill in the blank: the reported gcPBM binding intensity (ln) of AAGTAATTTGTTGACACACACACACGCATACCTATA [CACACA_site7140] is ____.
(A) 10.2

(Q) Fill in the blank: the reported gcPBM binding intensity (ln) of ATATAACAGAAACACACACACATATATATATATTAT [CACACA_site4140] is ____.
(A) 10.2

(Q) Fill in the blank: the reported gcPBM binding intensity (ln) of TAGATACAGAAACACACACACACATACATATATACA [CACACA_site3437] is ____.
(A) 10.2

(Q) Fill in the blank: the reported gcPBM binding intensity (ln) of TATATATATATACCTTGTACTTACATTCGCATATAA [XGTACX_site2466] is ____.
(A) 9.32

(Q) Fill in the blank: the reported gcPBM binding intensity (ln) of GTATCAAAAGAATACACACACACATACAGATATATA [CACACA_site5975] is ____.
(A) 10.1

====

System: PF3D7_0420300 AP2 domain 1 (GST-tagged)
Assay: gcPBM binding intensity (ln(normalized median fluorescence intensity)); higher = stronger DNA binding
In all, about 25,000 sequences were measured (“ln(normalized median fluorescence intensity)”: median about 9.3, highest 2% from about 10 on). The entries come from a sample that favours the highest values as a whole.
So I've got a bunch of sequences here, and I need their gcPBM binding intensity (ln) values.
No unit in the answer, only the number.

(Q) Fill in the blank: the reported gcPBM binding intensity (ln) of CTTATATATACATATACACACACACCCATATATATA [CACACA_site8705] is ____.
(A) 10.1

(Q) Fill in the blank: the reported gcPBM binding intensity (ln) of TATACATACACATACACACATACACCCATACACATA [CACACA_site1746] is ____.
(A) 9.93

(Q) Fill in the blank: the reported gcPBM binding intensity (ln) of TACACCCACCCACATACACACACATACACATATATA [CACACA_site8503] is ____.
(A) 10.2

(Q) Fill in the blank: the reported gcPBM binding intensity (ln) of ACCGTGGGAAGACACACACACACACCCACATATATA [CACACA_site333] is ____.
(A) 10.2

(Q) Fill in the blank: the reported gcPBM binding intensity (ln) of TATATATATAAACACACACACACACCCAAGCGTAGC [CACACA_site4210] is ____.
(A) 10.1
